meta.source: paper PMC6154683

test: Pharmacokinetic and bioavailability study in beagle dogs after intravenous and oral administration (plasma, LC-MS/MS); format: in vivo; conditions: dog, plasma; IV 15 mg/kg, beagle dogs
OBSERVED_PROPERTY: AUC(0-t) (ng·h/mL)
Write the number in ng·h/mL without appending the unit.

Sample O=C([O-])[C@H](O)Cc1ccc(O)c(O)c1.[Na+] [sodium danshensu] — what was its AUC(0-t)? 17800

====

experiment: Pharmacokinetic and bioavailability study in beagle dogs after intravenous and oral administration (plasma, LC-MS/MS); assay type: in vivo; settings: one beagle dog plasma sample, 1.5 h after intravenous 10 mg/kg; read-out: assayed plasma concentration
OBSERVED_PROPERTY: concentration at 1.5 h

Look up concentration at 1.5 h for this compound: O=C([O-])[C@H](O)Cc1ccc(O)c(O)c1.[Na+] [sodium danshensu] 930 ng/mL

====

assay: Pharmacokinetic and bioavailability study in beagle dogs after intravenous and oral administration (plasma, LC-MS/MS); type: in vivo; details: dog, plasma; IV 10 mg/kg, beagle dogs
OBSERVED_PROPERTY: AUC(0-inf) (ng·h/mL)
Quick reminder: number only, in ng·h/mL, skip the unit.

Recorded AUC(0-inf) of O=C([O-])[C@H](O)Cc1ccc(O)c(O)c1.[Na+] [sodium danshensu] , please. 8460

====

Assay: Pharmacokinetic and bioavailability study in beagle dogs after intravenous and oral administration (plasma, LC-MS/MS)
Format: in vivo
Conditions: dog, plasma; PO 60 mg/kg, beagle dogs
Protocol: All the studies on animals were done in accordance with the Guidelines for the Care and Use of Laboratory Animals. Beagle dogs (~10 kg) were purchased from the Shanghai Slack Experimental Animal Co., Ltd. (Shanghai, China) and acclimated in the laboratory for 1 week prior to the experiments, housed in separate cages under room temperature with a 12 h light/dark cycle, and free access to standard diet and water. […]
OBSERVED_PROPERTY: AUC(0-t)
Your answer should be a number followed by the unit of measure.

Can you look up the measured AUC(0-t) of O=C([O-])[C@H](O)Cc1ccc(O)c(O)c1.[Na+] [sodium danshensu] for me? 22200 ng·h/mL

====

experiment: Pharmacokinetic and bioavailability study in beagle dogs after intravenous and oral administration (plasma, LC-MS/MS); type: in vivo; settings: dog, plasma; IV 15 mg/kg, beagle dogs
OBSERVED_PROPERTY: clearance (mL/min)
State the answer as a number, implicitly in mL/min.

What clearance value was documented for this molecule, O=C([O-])[C@H](O)Cc1ccc(O)c(O)c1.[Na+] [sodium danshensu] ? 144

====

experiment: Pharmacokinetic and bioavailability study in beagle dogs after intravenous and oral administration (plasma, LC-MS/MS); assay type: in vivo; conditions: dog, plasma; IV 5 mg/kg, beagle dogs
OBSERVED_PROPERTY: half-life
Returns: string containing the numeric result and its unit.

Query (compound): O=C([O-])[C@H](O)Cc1ccc(O)c(O)c1.[Na+] [sodium danshensu] ; field requested: half-life 2.3 h

====

assay: Pharmacokinetic and bioavailability study in beagle dogs after intravenous and oral administration (plasma, LC-MS/MS); type: in vivo; conditions: dog, plasma; IV 5 mg/kg, beagle dogs
OBSERVED_PROPERTY: clearance
Respond with the figure and its unit, in that order.

Can you share its clearance? I mean this molecule: O=C([O-])[C@H](O)Cc1ccc(O)c(O)c1.[Na+] [sodium danshensu] 123 mL/min

====

test: Pharmacokinetic and bioavailability study in beagle dogs after intravenous and oral administration (plasma, LC-MS/MS); type: in vivo; details: dog, plasma; PO 60 mg/kg, beagle dogs
OBSERVED_PROPERTY: half-life (h)
Please reply with the bare figure in h and do not write the unit itself.

Which half-life reading was recorded for the compound O=C([O-])[C@H](O)Cc1ccc(O)c(O)c1.[Na+] [sodium danshensu] ? 1.84

====

test: Pharmacokinetic and bioavailability study in beagle dogs after intravenous and oral administration (plasma, LC-MS/MS); format: in vivo; settings: dog, plasma; IV 15 mg/kg, beagle dogs
OBSERVED_PROPERTY: Vd (L)
Value expressed in L; do not type the unit.

# input molecule: O=C([O-])[C@H](O)Cc1ccc(O)c(O)c1.[Na+] [sodium danshensu] ; wanted: its Vd 6.36

====

test: Pharmacokinetic and bioavailability study in beagle dogs after intravenous and oral administration (plasma, LC-MS/MS); format: in vivo; conditions: dog, plasma; PO 60 mg/kg, beagle dogs
OBSERVED_PROPERTY: Tmax (h)
# unit: h | format: bare number

Any idea what Tmax was measured for O=C([O-])[C@H](O)Cc1ccc(O)c(O)c1.[Na+] [sodium danshensu] ? 2.83

====

assay: Pharmacokinetic and bioavailability study in beagle dogs after intravenous and oral administration (plasma, LC-MS/MS); format: in vivo; settings: dog, plasma; IV 5 mg/kg, beagle dogs
OBSERVED_PROPERTY: AUC(0-inf) (ng·h/mL)
Give just the number in ng·h/mL; leave the unit off.

Using the record for O=C([O-])[C@H](O)Cc1ccc(O)c(O)c1.[Na+] [sodium danshensu] , report its AUC(0-inf). 6870

====

test: Pharmacokinetic and bioavailability study in beagle dogs after intravenous and oral administration (plasma, LC-MS/MS); format: in vivo; conditions: dog, plasma; IV 15 mg/kg, beagle dogs
OBSERVED_PROPERTY: half-life
Answer as a quantity: numeral, then unit.

For the molecule shown here, O=C([O-])[C@H](O)Cc1ccc(O)c(O)c1.[Na+] [sodium danshensu] , give the reported half-life. 1.64 h

====

experiment: Pharmacokinetic and bioavailability study in beagle dogs after intravenous and oral administration (plasma, LC-MS/MS); type: in vivo; conditions: dog, plasma; IV 10 mg/kg, beagle dogs
OBSERVED_PROPERTY: half-life (h)
Quick note: give the figure in h, leave out the unit.

Look at this compound and give its reported half-life. O=C([O-])[C@H](O)Cc1ccc(O)c(O)c1.[Na+] [sodium danshensu] 2.32

====

assay: Pharmacokinetic and bioavailability study in beagle dogs after intravenous and oral administration (plasma, LC-MS/MS); type: in vivo; conditions: dog, plasma; IV 10 mg/kg, beagle dogs
OBSERVED_PROPERTY: clearance (mL/min)
Write it as a number; the unit mL/min goes unstated.

I would be grateful if you could share the reported clearance for O=C([O-])[C@H](O)Cc1ccc(O)c(O)c1.[Na+] [sodium danshensu] . 197

====

test: Pharmacokinetic and bioavailability study in beagle dogs after intravenous and oral administration (plasma, LC-MS/MS); type: in vivo; conditions: dog, plasma; IV 10 mg/kg, beagle dogs
OBSERVED_PROPERTY: Vd (L)
Kindly answer with a numeric value in L, unit omitted.

Could you share which Vd value was measured for O=C([O-])[C@H](O)Cc1ccc(O)c(O)c1.[Na+] [sodium danshensu] ? 12.8

====

experiment: Pharmacokinetic and bioavailability study in beagle dogs after intravenous and oral administration (plasma, LC-MS/MS); assay type: in vivo; details: dog, plasma; PO 60 mg/kg, beagle dogs
OBSERVED_PROPERTY: Cmax (ng/mL)
Dear colleague, please return just the value in ng/mL, with no unit written.

Name the reported Cmax value associated with the compound O=C([O-])[C@H](O)Cc1ccc(O)c(O)c1.[Na+] [sodium danshensu] 7920
